details: in ethyl acetate, 308.15 K
measure.name: solubility (mole fraction)

> print(dat)
                                   compound  reported
1  CSCC1CN(/N=C/c2ccc([N+](=O)[O-])o2)C(=O)O1 (stereo unspecified)  0.000505

----------
settings: in acetonitrile, 318.15 K
measure.name: solubility (mole fraction)

> print(dat)
                                   compound                measure.name  reported
1  CSCC1CN(/N=C/c2ccc([N+](=O)[O-])o2)C(=O)O1 (stereo unspecified)  solubility (mole fraction)   0.00687

----------
details: in acetonitrile, 323.15 K
measure.name: solubility (mole fraction)

> print(dat)
                                   compound                measure.name  reported
1  CSCC1CN(/N=C/c2ccc([N+](=O)[O-])o2)C(=O)O1 (stereo unspecified)  solubility (mole fraction)   0.00835
